target: SMYD3 (Homo sapiens (Human)); test: SMYD3 biochemical assay (SPA, 3H-SAM methylation of MEKK2 protein substrate); details: read-out: SMYD3 Biochem IC50 (μM)*
Below is a list of entries, each paired with its recorded IC50 value.
RECORDED_METRIC: IC50 (µM)

{"COMPOUND": "NC[C@@H](Cc1ccc(O)c(C(F)(F)F)c1)C(=O)N1CCC(NC(=O)c2cc(C3CC3)on2)CC1", "UNIT_ABBREV": "µM", "MODIFIER_SIGN": "=", "ASSAY_VALUE": 0.0816}
{"COMPOUND": "C[C@H]1CC(NC(=O)c2cc(C3CC3)on2)CCN1C(=O)[C@@H]1CC[C@H](N)C1 (stereo partly shown)", "UNIT_ABBREV": "µM", "MODIFIER_SIGN": "=", "ASSAY_VALUE": 2.56}
{"COMPOUND": "C[C@@H]1C[C@@H](NC(=O)c2cc(C3CC3)on2)CCN1C(=O)CCCN", "UNIT_ABBREV": "µM", "MODIFIER_SIGN": "=", "ASSAY_VALUE": 3.82}
{"COMPOUND": "N[C@H]1CC[C@H](C(=O)N2C3CCC2CC(NC(=O)c2cc(C4CC4)on2)C3)CC1 (stereo partly shown)", "UNIT_ABBREV": "µM", "MODIFIER_SIGN": ">", "ASSAY_VALUE": 10}
{"COMPOUND": "C[C@H]1C[C@H](NC(=O)c2cc(C3CC3)on2)CCN1S(=O)(=O)C1CC1", "UNIT_ABBREV": "µM", "MODIFIER_SIGN": ">", "ASSAY_VALUE": 10}
{"COMPOUND": "C[C@H]1CN(C(=O)[C@H]2CC[C@H](N)CC2)CCC1NC(=O)c1cc(C2CC2)on1 (stereo partly shown)", "UNIT_ABBREV": "µM", "MODIFIER_SIGN": "=", "ASSAY_VALUE": 2}
{"COMPOUND": "N[C@@H](Cc1ccc(O)c(Br)c1)C(=O)N1CCC(NC(=O)c2cc(C3CC3)on2)CC1", "UNIT_ABBREV": "µM", "MODIFIER_SIGN": "=", "ASSAY_VALUE": 0.214}
{"COMPOUND": "CC(C)CNc1ccc(S(=O)(=O)N2CC[C@H](NC(=O)c3cc(C4CC4)on3)C[C@H]2C)cn1", "UNIT_ABBREV": "µM", "MODIFIER_SIGN": ">", "ASSAY_VALUE": 10}
{"COMPOUND": "NCCCC(=O)N1C2CCCC1CC(NC(=O)c1cc(C3CC3)on1)C2 (stereo not shown)", "UNIT_ABBREV": "µM", "MODIFIER_SIGN": "=", "ASSAY_VALUE": 5.85}
{"COMPOUND": "CN1CCC(CC(=O)N2CCC(NC(=O)c3cc(C4CC4)on3)CC2)CC1", "UNIT_ABBREV": "µM", "MODIFIER_SIGN": "=", "ASSAY_VALUE": 5.08}
{"COMPOUND": "NCCCC(=O)N1CC[C@@H](NC(=O)c2cc(C3CC3)on2)C[C@@H]1Cc1ccccc1", "UNIT_ABBREV": "µM", "MODIFIER_SIGN": "=", "ASSAY_VALUE": 1.9}
{"COMPOUND": "C[C@H]1C[C@H](NC(=O)c2cc(C3CC3)on2)CCN1C(=O)c1cccc(C(C)(C)N)c1", "UNIT_ABBREV": "µM", "MODIFIER_SIGN": "=", "ASSAY_VALUE": 2.75}
{"COMPOUND": "C[C@H]1C[C@H](NC(=O)c2cc(C3CC3)on2)CCN1C(=O)CC(C)(C)CN", "UNIT_ABBREV": "µM", "MODIFIER_SIGN": "=", "ASSAY_VALUE": 1.62}
{"COMPOUND": "CC(C)CN(C)c1ccc(S(=O)(=O)N2CC[C@@H](NC(=O)c3cc(C4CC4)on3)C[C@@H]2C)cn1", "UNIT_ABBREV": "µM", "MODIFIER_SIGN": ">", "ASSAY_VALUE": 10}
{"COMPOUND": "O=C(N[C@H]1CCN(S(=O)(=O)CCN2CCCC2)[C@@H](Cc2ccccc2)C1)c1cc(C2CC2)on1", "UNIT_ABBREV": "µM", "MODIFIER_SIGN": "=", "ASSAY_VALUE": 1}
{"COMPOUND": "CC[C@@H]1CC(NC(=O)c2cc(C3CC3)on2)C[C@H](CC)N1C(=O)CCCN (stereo partly shown)", "UNIT_ABBREV": "µM", "MODIFIER_SIGN": "=", "ASSAY_VALUE": 6.93}
{"COMPOUND": "COCCCS(=O)(=O)N1CC[C@@H](NC(=O)c2cc(C3CC3)on2)C[C@H]1C", "UNIT_ABBREV": "µM", "MODIFIER_SIGN": ">", "ASSAY_VALUE": 10}
{"COMPOUND": "CC1CC(NC(=O)c2cc(C3CC3)on2)CCN1C(=O)Cc1c[nH]cn1 (stereo not shown)", "UNIT_ABBREV": "µM", "MODIFIER_SIGN": ">", "ASSAY_VALUE": 10}
{"COMPOUND": "C[C@@H](C(=O)N1CC[C@@H](NC(=O)c2cc(C3CC3)on2)C[C@@H]1C)C1CCNCC1", "UNIT_ABBREV": "µM", "MODIFIER_SIGN": "=", "ASSAY_VALUE": 1.46}
{"COMPOUND": "C[C@@H]1C[C@H](NC(=O)c2cc(C3CC3)on2)CCN1S(=O)(=O)CCc1ccccc1", "UNIT_ABBREV": "µM", "MODIFIER_SIGN": ">", "ASSAY_VALUE": 10}
{"COMPOUND": "C[C@H]1CC(NC(=O)c2cc(C3CC3)on2)CCN1C(=O)CC(C)(C)CN (stereo partly shown)", "UNIT_ABBREV": "µM", "MODIFIER_SIGN": "=", "ASSAY_VALUE": 1.45}
{"COMPOUND": "CC[C@H]1CN(C(=O)CCCN)CC[C@H]1NC(=O)c1cc(C2CC2)on1", "UNIT_ABBREV": "µM", "MODIFIER_SIGN": "=", "ASSAY_VALUE": 0.989}
{"COMPOUND": "O=C(N[C@@H]1CCN(C(=O)CC2CCNCC2)C[C@@H]1CO)c1cc(C2CC2)on1", "UNIT_ABBREV": "µM", "MODIFIER_SIGN": "=", "ASSAY_VALUE": 2.95}
{"COMPOUND": "O=C(N[C@H]1C[C@H]2CC[C@@H](C1)N2S(=O)(=O)c1ccc2[nH]c(=O)[nH]c2c1)c1cc(C2CC2)on1", "UNIT_ABBREV": "µM", "MODIFIER_SIGN": "=", "ASSAY_VALUE": 2.41}
{"COMPOUND": "N[C@H]1CC[C@H](C(=O)N2CCC(NC(=O)c3cc(C4CC4)on3)C[C@H]2c2ccccc2)CC1 (stereo partly shown)", "UNIT_ABBREV": "µM", "MODIFIER_SIGN": ">", "ASSAY_VALUE": 10}
{"COMPOUND": "CC(=O)Nc1ccc(S(=O)(=O)N2[C@@H]3CC[C@H]2C[C@@H](NC(=O)c2cc(C4CC4)on2)C3)cc1", "UNIT_ABBREV": "µM", "MODIFIER_SIGN": "=", "ASSAY_VALUE": 10}
{"COMPOUND": "NCCCS(=O)(=O)N1CC[C@H](NC(=O)c2cc(C3CC3)on2)C[C@H]1Cc1ccccc1", "UNIT_ABBREV": "µM", "MODIFIER_SIGN": "=", "ASSAY_VALUE": 0.25}
{"COMPOUND": "C[C@@H]1C[C@@H](NC(=O)c2cc(C3CC3)on2)CCN1C(=O)[C@H](C)C1CCNCC1", "UNIT_ABBREV": "µM", "MODIFIER_SIGN": "=", "ASSAY_VALUE": 0.179}
{"COMPOUND": "CC(=O)Nc1ccc(S(=O)(=O)N2CC[C@H](NC(=O)c3cc(C4CC4)on3)C[C@H]2C)cc1", "UNIT_ABBREV": "µM", "MODIFIER_SIGN": ">", "ASSAY_VALUE": 10}
{"COMPOUND": "C[C@H]1C[C@H](NC(=O)c2cc(C3CC3)on2)CCN1S(=O)(=O)CCCN", "UNIT_ABBREV": "µM", "MODIFIER_SIGN": "=", "ASSAY_VALUE": 0.0723}
{"COMPOUND": "CC(C)CN(C)c1ncccc1S(=O)(=O)N1C2CCCC1CC(NC(=O)c1cc(C3CC3)on1)C2 (stereo not shown)", "UNIT_ABBREV": "µM", "MODIFIER_SIGN": ">", "ASSAY_VALUE": 10}
